- Tgt: T1, human PRLR (Biacore antigen) (human, UniProt P16471 25-234, limits assumed)
- T1 construct: The construct injected over captured antibody is not described (a soluble form is likely); also called huPRLR
- T1 sequence: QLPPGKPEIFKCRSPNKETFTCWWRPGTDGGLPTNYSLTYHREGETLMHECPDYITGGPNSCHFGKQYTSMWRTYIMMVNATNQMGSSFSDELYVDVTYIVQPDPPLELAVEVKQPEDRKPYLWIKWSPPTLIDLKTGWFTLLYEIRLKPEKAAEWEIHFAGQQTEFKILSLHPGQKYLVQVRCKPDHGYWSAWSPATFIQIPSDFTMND
- Experiment notes: SPR simultaneous binding; PRLR held by surface mAb Ab40
binders and their reported solution mAb binding, % of PRLR binding

{"columns": ["Binder", "solution mAb binding, % of PRLR binding [%]"],
 "data": [
  ["Ab48 (antibody, human IgG1, kappa, V domains shown, humanized from Ab8; G1; also called Ab3 HC.1a and Ab3 LC.1a) VH: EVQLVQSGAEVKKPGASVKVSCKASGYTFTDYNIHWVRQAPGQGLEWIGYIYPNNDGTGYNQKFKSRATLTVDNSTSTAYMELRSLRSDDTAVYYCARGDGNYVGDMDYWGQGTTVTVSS VL: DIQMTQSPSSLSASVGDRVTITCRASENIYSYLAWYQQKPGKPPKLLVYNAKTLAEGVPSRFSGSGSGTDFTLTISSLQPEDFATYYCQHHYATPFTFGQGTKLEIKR", -2],
  ["Ab49 (antibody, human IgG1, kappa, V domains shown, humanized from Ab8; G1; also called Ab3 HC.1a and Ab3 LC.1b) VH: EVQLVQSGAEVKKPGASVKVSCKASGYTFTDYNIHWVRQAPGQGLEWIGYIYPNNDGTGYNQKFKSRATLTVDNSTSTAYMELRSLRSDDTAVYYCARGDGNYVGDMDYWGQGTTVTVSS VL: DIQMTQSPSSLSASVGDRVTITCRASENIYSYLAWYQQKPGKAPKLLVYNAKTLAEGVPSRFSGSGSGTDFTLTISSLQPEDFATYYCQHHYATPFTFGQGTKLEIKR", -3],
  ["LFA102 (antibody, human IgG1, kappa, V domains shown, humanized IgG1 kappa comparator (WO 2008022295)) VH: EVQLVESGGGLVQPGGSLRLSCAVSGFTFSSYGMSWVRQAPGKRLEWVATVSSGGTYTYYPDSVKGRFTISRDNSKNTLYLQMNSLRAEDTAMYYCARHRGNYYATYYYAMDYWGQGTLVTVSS VL: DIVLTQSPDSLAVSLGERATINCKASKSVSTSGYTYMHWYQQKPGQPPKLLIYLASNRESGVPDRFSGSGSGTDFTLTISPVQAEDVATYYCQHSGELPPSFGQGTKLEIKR", 40],
  ["Ab19 (antibody, human IgG1, kappa, V domains shown, humanized from Ab6; G1; also called Ab1 HC.1a and Ab1 LC.1a) VH: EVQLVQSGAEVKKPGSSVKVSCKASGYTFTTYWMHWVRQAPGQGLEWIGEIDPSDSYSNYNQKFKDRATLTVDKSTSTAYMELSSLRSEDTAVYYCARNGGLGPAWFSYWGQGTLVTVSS VL: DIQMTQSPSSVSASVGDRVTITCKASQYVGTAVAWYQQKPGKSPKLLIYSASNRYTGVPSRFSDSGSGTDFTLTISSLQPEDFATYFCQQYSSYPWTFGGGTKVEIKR", -2],
  ["chAb6 (antibody, human IgG1, kappa, V domains shown, chimeric, murine variable and human G1/kappa constant regions) VH: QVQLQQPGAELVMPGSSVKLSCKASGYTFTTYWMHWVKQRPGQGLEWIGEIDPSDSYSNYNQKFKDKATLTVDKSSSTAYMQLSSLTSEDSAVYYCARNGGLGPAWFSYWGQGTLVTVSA VL: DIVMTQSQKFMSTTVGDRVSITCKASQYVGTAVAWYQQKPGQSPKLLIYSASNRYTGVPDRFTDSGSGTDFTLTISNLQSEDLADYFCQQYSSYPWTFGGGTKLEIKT", -2]
]}

Reference source for all entries: patent US20170022281A1
